target: human TLR7 (Homo sapiens); assay: TLR7 inhibition reporter assay (HEK-Blue cells, SEAP reporter, gardiquimod stimulation); conditions: HEK-Blue cells overexpressing human TLR7, gardiquimod 7.5 μM
Parameter: pIC50
Keep in mind that pIC50 stands for -log10 of concentration in molar terms.

Worked cases, answers included:
| Compound | Target System | pIC50 |
| --- | --- | --- |
| COc1ccc(-c2[nH]c3ccc(C4CCN(CC(=O)NCCN5CCCC5)CC4)cc3c2CC(F)(F)F)cc1OC | human TLR7 (Homo sapiens) | 7.54 |
| CCC(CO)NCC(=O)N1CCC(c2ccc3[nH]c(-c4ccc(OC)c(OC)c4)c(C(C)C)c3c2)CC1 (stereo not shown) | human TLR7 (Homo sapiens) | 7.64 |
| COc1ccc(-c2[nH]c3ccc(C4CCN(C(=O)CS(C)(=O)=O)CC4)cc3c2CC(F)(F)F)cc1OC | human TLR7 (Homo sapiens) | 6.81 |
| COc1ccc(-c2[nH]c3ccc(C4CCN(C(=O)CCN(C)C)CC4)cc3c2CC(F)(F)F)cc1OC | human TLR7 (Homo sapiens) | 7.66 |
| CCN(CC)C(=O)C1CCCN(CC(=O)N2CCC(c3ccc4[nH]c(-c5ccc(OC)c(OC)c5)c(C5CCOCC5)c4c3)CC2)C1 (stereo not shown) [Example 391] | human TLR7 (Homo sapiens) | 6.20 |

[in] For `CCc1c(-c2ccc(OC)c(OC)c2)[nH]c2ccc(C3CCN(C4CCN(Cc5ccoc5)CC4)CC3)cc12` , what is its reported pIC50?
[out] 6.23

[in] Requested read-out: pIC50. Entry: `COc1ccc(-c2[nH]c3ccc(C4CCN(C(=O)CCCNC(C)=O)CC4)cc3c2CC(F)(F)F)cc1OC`
[out] 6.76

----------
biological target: human TLR7 (Homo sapiens, UniProt Q9NYK1); assay: TLR7 inhibition reporter assay (HEK-Blue cells, SEAP reporter, gardiquimod stimulation); conditions: HEK-Blue cells overexpressing human TLR7, gardiquimod 7.5 μM
Sequence (Q9NYK1 27-1049): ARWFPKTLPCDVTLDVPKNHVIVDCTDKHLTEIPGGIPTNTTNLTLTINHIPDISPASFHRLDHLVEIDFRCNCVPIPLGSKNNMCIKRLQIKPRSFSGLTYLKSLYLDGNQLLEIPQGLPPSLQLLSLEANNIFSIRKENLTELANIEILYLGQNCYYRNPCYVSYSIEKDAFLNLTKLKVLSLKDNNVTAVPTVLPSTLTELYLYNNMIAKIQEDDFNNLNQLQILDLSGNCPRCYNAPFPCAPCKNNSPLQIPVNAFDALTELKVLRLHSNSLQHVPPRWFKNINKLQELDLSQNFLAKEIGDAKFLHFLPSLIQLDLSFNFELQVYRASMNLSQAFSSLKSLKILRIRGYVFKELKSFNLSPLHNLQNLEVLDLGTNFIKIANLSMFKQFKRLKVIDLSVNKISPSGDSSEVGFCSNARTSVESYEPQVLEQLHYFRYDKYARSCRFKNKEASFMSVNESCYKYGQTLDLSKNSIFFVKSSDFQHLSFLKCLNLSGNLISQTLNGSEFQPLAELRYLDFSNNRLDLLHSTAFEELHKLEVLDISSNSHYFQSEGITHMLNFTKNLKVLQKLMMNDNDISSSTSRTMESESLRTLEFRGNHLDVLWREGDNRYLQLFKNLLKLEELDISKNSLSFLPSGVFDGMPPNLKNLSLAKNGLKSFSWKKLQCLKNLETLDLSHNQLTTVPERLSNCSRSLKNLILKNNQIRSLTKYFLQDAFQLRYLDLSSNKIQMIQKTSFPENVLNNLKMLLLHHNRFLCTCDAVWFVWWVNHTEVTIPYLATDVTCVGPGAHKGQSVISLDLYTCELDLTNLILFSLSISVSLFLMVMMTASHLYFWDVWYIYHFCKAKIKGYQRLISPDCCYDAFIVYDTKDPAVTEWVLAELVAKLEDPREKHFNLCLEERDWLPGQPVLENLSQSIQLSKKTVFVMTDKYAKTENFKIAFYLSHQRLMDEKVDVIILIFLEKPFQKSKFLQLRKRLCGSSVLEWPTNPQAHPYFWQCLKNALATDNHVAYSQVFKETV
IC50 class ranges: Low (below 70 nM), Medium (70 nM to below 200 nM), High (200 nM or more)

Solved cases (10 shown):
| Compound | Target System | Category |
| --- | --- | --- |
| COc1ccc(-c2[nH]c3ccc(C4CCN(C(=O)CCC(N)=O)CC4)cc3c2CC(F)(F)F)cc1OC [Example 333] | human TLR7 (Homo sapiens, UniProt Q9NYK1) | Medium |
| COc1ccc(-c2[nH]c3ccc(C4CCN(C(=O)CN5CCC[C@H](C(=O)N6CCC(N(C)C)CC6)C5)CC4)cc3c2C(C)C)cc1OC [Example 289] | human TLR7 (Homo sapiens, UniProt Q9NYK1) | Low |
| CCc1c(-c2ccc(OC)c(OC)c2)[nH]c2ccc(C3CCN(C(=O)CN4CCCN(C(C)=O)CC4)CC3)cc12 [Example 166] | human TLR7 (Homo sapiens, UniProt Q9NYK1) | High |
| COc1ccc(-c2[nH]c3ccc(C4CCN(C(=O)CN(C)CCO)CC4)cc3c2C(C)C)cc1OC [Example 242] | human TLR7 (Homo sapiens, UniProt Q9NYK1) | Low |
| COc1ccc(-c2[nH]c3ccc(C4CCN(C(=O)CN5CCC[C@@H](C(=O)N6CCCC6)C5)CC4)cc3c2C(C)C)cc1OC [Example 303] | human TLR7 (Homo sapiens, UniProt Q9NYK1) | Low |
| COc1ccc(-c2[nH]c3ccc(C4CCN(CC(=O)NCCc5ccc(S(N)(=O)=O)cc5)CC4)cc3c2CC(F)(F)F)cc1OC [Example 384] | human TLR7 (Homo sapiens, UniProt Q9NYK1) | Medium |
| COc1ccc(-c2[nH]c3ccc(C4CCN(C(=O)CO)CC4)cc3c2C(C)C)cc1OC [Example 313] | human TLR7 (Homo sapiens, UniProt Q9NYK1) | Medium |
| COc1ccc(-c2[nH]c3ccc(C4CCN(C(=O)CN5CCC[C@H](C(=O)N6CCC(CCO)CC6)C5)CC4)cc3c2C(C)C)cc1OC [Example 291] | human TLR7 (Homo sapiens, UniProt Q9NYK1) | Low |
| COc1ccc(-c2[nH]c3ccc(C4CCN(C5CCN(CC(C)(C)CO)CC5)CC4)cc3c2C)cc1OC [Example 69] | human TLR7 (Homo sapiens, UniProt Q9NYK1) | High |
| COc1ccc(-c2[nH]c3cc(C)c(C4CCN(C5CCN(C(C)C)CC5)CC4)cc3c2C)cc1OC [Example 115] | human TLR7 (Homo sapiens, UniProt Q9NYK1) | Medium |

[in] Which IC50 band matches COc1ccc(-c2[nH]c3ccc(C4CCN(C5CCCC(N(C)C)C5)CC4)cc3c2C)cc1OC (centres unmarked) [Example 25] ?
[out] High

[in] Lab note: sort COc1ccc(-c2[nH]c3ccc(C4CCN(C5CCN(CC(C)C)CC5)CC4)cc3c2C(C)C)cc1OC [Example 199] into the matching IC50 band.
[out] Medium

[in] Assign a bin to COc1ccc(-c2[nH]c3ccc(C4CCN(Cc5ccnc6ccccc56)CC4)cc3c2C)cc1OC [Example 32]
[out] High

[in] # classify by IC50 band: COc1ccc(-c2[nH]c3ccc(C4CCN(C5CCCN(C6COC6)CC5)CC4)cc3c2C)cc1OC (centres unmarked) [Example 96]
[out] High

----------
Molecular target: human TLR9 (Homo sapiens)
Sequence (Q9NR96 26-1032): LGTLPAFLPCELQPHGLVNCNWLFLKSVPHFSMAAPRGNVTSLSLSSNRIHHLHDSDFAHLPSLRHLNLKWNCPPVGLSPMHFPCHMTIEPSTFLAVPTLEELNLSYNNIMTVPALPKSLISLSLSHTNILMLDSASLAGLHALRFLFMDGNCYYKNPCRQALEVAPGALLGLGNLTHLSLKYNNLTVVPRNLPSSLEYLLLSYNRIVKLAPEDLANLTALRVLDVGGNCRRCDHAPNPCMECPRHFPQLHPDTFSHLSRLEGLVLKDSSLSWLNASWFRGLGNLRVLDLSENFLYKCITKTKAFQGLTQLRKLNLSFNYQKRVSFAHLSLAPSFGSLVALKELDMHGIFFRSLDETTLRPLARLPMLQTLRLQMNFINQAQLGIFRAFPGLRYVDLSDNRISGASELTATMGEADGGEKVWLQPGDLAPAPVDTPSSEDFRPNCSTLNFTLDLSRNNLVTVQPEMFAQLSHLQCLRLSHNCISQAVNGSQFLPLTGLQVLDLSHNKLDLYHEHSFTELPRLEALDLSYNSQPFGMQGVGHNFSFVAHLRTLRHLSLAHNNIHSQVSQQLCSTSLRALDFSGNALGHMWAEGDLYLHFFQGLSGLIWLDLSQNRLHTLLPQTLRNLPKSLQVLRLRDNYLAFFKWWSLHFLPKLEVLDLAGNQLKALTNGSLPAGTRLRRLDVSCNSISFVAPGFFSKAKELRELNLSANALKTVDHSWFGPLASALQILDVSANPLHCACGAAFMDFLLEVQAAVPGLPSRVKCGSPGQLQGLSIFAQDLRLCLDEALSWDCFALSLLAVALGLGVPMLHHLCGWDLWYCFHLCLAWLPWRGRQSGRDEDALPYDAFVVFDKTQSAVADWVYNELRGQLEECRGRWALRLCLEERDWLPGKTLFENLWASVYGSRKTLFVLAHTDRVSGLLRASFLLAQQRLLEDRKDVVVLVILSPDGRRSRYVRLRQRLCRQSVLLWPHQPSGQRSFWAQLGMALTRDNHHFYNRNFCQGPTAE
Test: TLR9 inhibition reporter assay (HEK-Blue cells, SEAP reporter, ODN2006 stimulation)
Details: HEK-Blue cells overexpressing human TLR9, ODN2006 5 nM
Quick list: IC50 per entry.
Report as a plain number; the unit nM is understood.

Known IC50 results, listed for orientation:
| Compound | Reported |
| --- | --- |
| COc1ccc(-c2[nH]c3ccc(C4CCN(C5CCN(C(C)C)CC5)CC4)cc3c2CC(F)(F)F)cc1OC [Example 412] | 247 |
| COc1ccc(-c2[nH]c3ccc(C4CCN(C(=O)CN5CCCC(C(=O)NC6CCN(C(C)C)CC6)C5)CC4)cc3c2C(C)C)cc1OC (single isomer, unassigned) [Example 281] | 586 |

[in] What value of IC50 has been recorded for this entry: COc1ccc(-c2[nH]c3ccc(C4CCN(C[C@H]5CCCN5)CC4)cc3c2C)cc1OC [Example 108]
[out] 861

[in] Entry under review: COc1ccc(-c2[nH]c3ccc(C4CCN(C(=O)CNC56CC7CC(CC(O)(C7)C5)C6)CC4)cc3c2C(C)C)cc1OC [Example 218] . Reported IC50?
[out] 1280

[in] Entry CCc1c(-c2ccc(OC)c(OC)c2)[nH]c2ccc(C3CCN(C(=O)CN4CCC(N5CCCCC5)CC4)CC3)cc12 [Example 158] has what IC50?
[out] 678

----------
target: human TLR7 (Homo sapiens, UniProt Q9NYK1); assay: TLR7 inhibition reporter assay (HEK-Blue cells, SEAP reporter, gardiquimod stimulation); conditions: HEK-Blue cells overexpressing human TLR7, gardiquimod 7.5 μM
Listing of entries alongside the reported pIC50.
Please note pIC50 is a logarithmic value: minus log10 of concentration in mol/L. Answer with that number alone.

[in] Param item = COc1ccc(-c2[nH]c3ccc(C4CCN(C(=O)CN(C)C)CC4)cc3c2C(O)C(F)(F)F)cc1OC (stereo not shown) [Example 395] ; retrieve measured pIC50.
[out] 7.21

[in] I'd like to know its pIC50. The molecule in question is COc1ccc(-c2[nH]c3ccc(C4CCN(C(=O)Cc5nnn[nH]5)CC4)cc3c2CC(F)(F)F)cc1OC [Example 341]
[out] 5.30
